target-entity: T1, IFN-αWA (human, UniProt P05015 24-189)
T1 construct: Recombinant, HEK293; also called IFN-α16
run-description: ProteOn SPR, cell supernatant;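 further: each binding measurement used just a single antigen concentration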
Category | rule: reported Kd within range, see interval 1: < 0.06 nM; interval 2: ≥ 0.06 nM and < 0.07 nM; interval 3: ≥ 0.07 nM

Example results:
| binder | group-label |
| --- | --- |
| IFWM3371 (antibody, IgG1, V domains shown, mAb; IgG1/kappa said of the parent and of selected mAbs; also called IFWB3106) VH: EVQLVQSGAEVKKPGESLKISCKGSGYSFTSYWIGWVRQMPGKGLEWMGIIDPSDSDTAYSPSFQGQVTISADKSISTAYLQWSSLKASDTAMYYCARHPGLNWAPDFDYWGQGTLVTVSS VL: DIQMTQSPSSLSASVGDRVTITCRASQSIANTNLNWYQQKPGKAPKLLIHWASSLQSGVPSRFSGSGSGTDFTLTISSLQPEDFATYYCQQWYDNPLTFGQGTKVEIK | interval 2 |
| IFWM3381 (antibody, IgG1, V domains shown, mAb; IgG1/kappa said of the parent and of selected mAbs; also called IFWB3116) VH: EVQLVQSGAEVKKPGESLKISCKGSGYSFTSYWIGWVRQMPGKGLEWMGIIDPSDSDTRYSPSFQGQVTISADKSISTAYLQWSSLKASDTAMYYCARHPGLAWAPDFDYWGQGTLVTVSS VL: DIQMTQSPSSLSASVGDRVTITCRASQSIGSFLNWYQQKPGKAPKLLIYFASSLQSGVPSRFSGSGSGTDFTLTISSLQPEDFATYYCQQSYSIPITFGQGTKVEIK | interval 2 |
| IFWM3376 (antibody, IgG1, V domains shown, mAb; IgG1/kappa said of the parent and of selected mAbs; also called IFWB3111) VH: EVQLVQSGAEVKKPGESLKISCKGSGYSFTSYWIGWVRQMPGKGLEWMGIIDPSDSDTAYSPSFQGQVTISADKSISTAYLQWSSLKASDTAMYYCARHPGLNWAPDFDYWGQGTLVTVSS VL: DIQMTQSPSSLSASVGDRVTITCRASQSISNSNLNWYQQKPGKAPKLLIHWASSLQSGVPSRFSGSGSGTDFTLTISSLQPEDFATYYCQQWYDHPLTFGQGTKVEIK | interval 2 |
| IFWM3403 (antibody, IgG1, V domains shown, mAb; IgG1/kappa said of the parent and of selected mAbs; also called IFWB3138) VH: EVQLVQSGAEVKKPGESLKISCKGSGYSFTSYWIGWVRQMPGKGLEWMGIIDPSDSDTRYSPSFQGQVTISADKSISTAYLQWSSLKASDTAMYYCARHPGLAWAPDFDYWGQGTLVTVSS VL: DIQMTQSPSSLSASVGDRVTITCRASQSIRNSLNWYQQKPGKAPKLLIKWASSLQSGVPSRFSGSGSGTDFTLTISSLQPEDFATYYCQQLYDWPLTFGQGTKVEIK | interval 1 |
| IFWM3398 (antibody, IgG1, V domains shown, mAb; IgG1/kappa said of the parent and of selected mAbs; also called IFWB3133) VH: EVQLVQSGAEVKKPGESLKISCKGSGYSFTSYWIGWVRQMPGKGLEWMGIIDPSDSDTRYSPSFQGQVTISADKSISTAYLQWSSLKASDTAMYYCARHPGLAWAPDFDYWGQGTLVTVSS VL: DIQMTQSPSSLSASVGDRVTITCRASQSINGVLNWYQQKPGKAPKLLIYFASSLQSGVPSRFSGSGSGTDFTLTISSLQPEDFATYYCQQSHDFPLTFGQGTKVEIK | interval 1 |
| IFWM3372 (antibody, IgG1, V domains shown, mAb; IgG1/kappa said of the parent and of selected mAbs; also called IFWB3107) VH: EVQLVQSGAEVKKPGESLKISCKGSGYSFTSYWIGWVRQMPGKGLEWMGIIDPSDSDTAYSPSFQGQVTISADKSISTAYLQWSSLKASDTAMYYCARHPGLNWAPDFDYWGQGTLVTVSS VL: DIQMTQSPSSLSASVGDRVTITCRASQSIDNNNLNWYQQKPGKAPKLLIYAASSLQSGVPSRFSGSGSGTDFTLTISSLQPEDFATYYCQQGYDWPLTFGQGTKVEIK | interval 3 |
| IFWM3418 (antibody, IgG1, V domains shown, mAb; IgG1/kappa said of the parent and of selected mAbs; also called IFWB3153) VH: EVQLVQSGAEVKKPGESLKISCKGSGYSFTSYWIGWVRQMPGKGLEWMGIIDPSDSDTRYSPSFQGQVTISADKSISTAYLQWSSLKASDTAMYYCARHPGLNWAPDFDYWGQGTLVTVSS VL: DIQMTQSPSSLSASVGDRVTITCRASQSIAGFLNWYQQKPGKAPKLLIYYASSLQSGVPSRFSGSGSGTDFTLTISSLQPEDFATYYCQQSYSIPITFGQGTKVEIK | interval 3 |
| IFWM3378 (antibody, IgG1, V domains shown, mAb; IgG1/kappa said of the parent and of selected mAbs; also called IFWB3113) VH: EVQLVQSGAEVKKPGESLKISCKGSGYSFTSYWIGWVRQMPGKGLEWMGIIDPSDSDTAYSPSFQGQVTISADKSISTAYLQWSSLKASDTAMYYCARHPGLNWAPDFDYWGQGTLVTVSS VL: DIQMTQSPSSLSASVGDRVTITCRASQSIANNDLNWYQQKPGKAPKLLIHWASSLQSGVPSRFSGSGSGTDFTLTISSLQPEDFATYYCQQDYDWPLTFGQGTKVEIK | interval 3 |

Attention now turns to another entry.
Consider IFWM3390 (antibody, IgG1, V domains shown, mAb; IgG1/kappa said of the parent and of selected mAbs; also called IFWB3125) VH: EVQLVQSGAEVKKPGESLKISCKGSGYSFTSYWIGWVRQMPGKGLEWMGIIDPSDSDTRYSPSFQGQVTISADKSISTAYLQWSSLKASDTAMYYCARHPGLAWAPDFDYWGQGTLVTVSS VL: DIQMTQSPSSLSASVGDRVTITCRASQSIDGALNWYQQKPGKAPKLLIYFASSLQSGVPSRFSGSGSGTDFTLTISSLQPEDFATYYCQQSFDFPLTFGQGTKVEIK . To which Kd class does it belong?
interval 1
